- experiment.notes: Microsomal metabolic stability assay
- Format: in vitro ADME
- details: pH 7.4; dog liver microsomes, 0.5 mg/mL protein, 1 μM compound; read-out: Dog LM Clint
Exercise: state measured microsomal CLint at 1 μM for each of the compounds provided.

# annotated cases, reported microsomal CLint at 1 μM shown
>>> value_measured("[2H]C([2H])([2H])NC(=O)c1cnc(NC(=O)C2CC2)cc1Nc1csc2c(Cl)cn(C)c(=O)c12")
"16.5 µL/min/mg"
>>> value_measured("[2H]C([2H])([2H])NC(=O)c1cnc(Nc2cccc(F)n2)cc1Nc1cn(C)c2c(Cl)cn(CC)c(=O)c12")
"27.2 µL/min/mg"
>>> value_measured("CCn1ccc2scc(Nc3cc(NC(=O)C4CC4)ncc3C(=O)NC)c2c1=O")
"47.1 µL/min/mg"
>>> value_measured("[2H]C([2H])([2H])NC(=O)c1cnc(Nc2ccc(C#N)cc2)nc1Nc1cccc(-c2ncn(C)n2)c1OC")
"4.77 µL/min/mg"
>>> value_measured("[2H]C([2H])([2H])NC(=O)c1nnc2cc1Nc1cc(cc(-c3ncn(C4CC4)n3)c1OC)COCc1nc(ccc1F)N2")
"17.8 µL/min/mg"
>>> value_measured("[2H]C([2H])([2H])NC(=O)c1cnc(NC(=O)C2CC2)cc1Nc1csc2cnn(C(C)C)c(=O)c12")
"< 11.5 µL/min/mg"

Moving on to the next compound.
Suppose we examine the compound [2H]C([2H])([2H])NC(=O)c1cnc(NC(=O)C2CC2)cc1Nc1cn(CCOC)c2ccn(CC)c(=O)c12 ; what microsomal CLint at 1 μM value has been reported? 11.2 µL/min/mg

----------
Exercise: state measured half-life at 1 μM for each of the molecules provided.
- experiment.notes: Hepatocytes metabolic stability assay
- Assay type: in vitro ADME
- details: cryopreserved hepatocytes, human hepatocytes, 1.0×10^6 cells/mL, read-out: Human hepatocyte stability T1/2

>>> value_measured("[2H]C([2H])([2H])NC(=O)c1nnc2cc1Nc1cc(cc(-c3ncn(C)n3)c1OC)COCc1nc(ccc1F)N2")
"> 240 min"
>>> value_measured("[2H]C([2H])([2H])NC(=O)c1nnc(NC(=O)C2CC2)cc1Nc1cccc(-c2ncn(C)n2)c1OC")
"> 217 min"
>>> value_measured("[2H]C([2H])([2H])NC(=O)c1cnc(Nc2cc(C)nc(C)n2)cc1Nc1cc(F)c2cnn(CC)c2c1OC")
"> 240 min"
>>> value_measured("[2H]C([2H])([2H])NC(=O)c1cnc(Nc2ccc(F)cn2)cc1Nc1nn(C)c2ccn(CC)c(=O)c12")
"> 240 min"
>>> value_measured("[2H]C([2H])([2H])NC(=O)c1cnc(NC(=O)C2CC2)cc1Nc1ccn2ncc(C#N)c2c1OC")
"> 240 min"

Suppose we examine the molecule [2H]C([2H])([2H])NC(=O)c1nnc(NC(=O)C2CC2)cc1Nc1csc2ccn(CC)c(=O)c12 ; what half-life at 1 μM value has been reported? > 240 min

----------
- experiment.notes: Microsomal metabolic stability assay
- Format: in vitro ADME
- details: pH 7.4; human liver microsomes, 0.5 mg/mL protein, 1 μM compound; read-out: Human LM T½
experimental.readout: half-life at 1 μM

>>> value_measured("[2H]C([2H])([2H])NC(=O)c1cnc2cc1Nc1cc(cc(-c3ncn(C)n3)c1OC)COCc1cc(C(F)(F)F)cc(n1)N2")
"> 120 min"
>>> value_measured("[2H]C([2H])([2H])NC(=O)c1cnc(NC(=O)C2CC2)cc1Nc1csc2cnn(CC3CC3(F)F)c(=O)c12 (stereo not drawn)")
"> 120 min"
>>> value_measured("CNC(=O)c1cnc2nc1Nc1cc(cc(-c3ncn(C)n3)c1OC)COCc1cccc(c1)N2")
"132 min"
>>> value_measured("[2H]C([2H])([2H])NC(=O)c1cnc(NC(=O)C2CC2)cc1Nc1ccc2cnn(CC)c2c1OC([2H])([2H])[2H]")
"57.8 min"
>>> value_measured("[2H]C([2H])([2H])NC(=O)c1nnc2cc1Nc1cc(cc(-c3ncn(C)n3)c1OC)COCc1nc(ccc1F)N2")
"184 min"

List the reported half-life at 1 μM of each compound below.
1. [2H]C([2H])([2H])NC(=O)c1cnc(NC(=O)C2CC2)cc1Nc1csc2c(Cl)cn(C([2H])([2H])[2H])c(=O)c12
2. [2H]C([2H])([2H])NC(=O)c1cnc(Nc2ccc(F)cn2)cc1Nc1ccc2cnn(CC)c2c1OC
3. [2H]C([2H])([2H])NC(=O)c1nnc2cc1Nc1cc(cc(-c3ncn(C)n3)c1OC)CN(C)Cc1nc(ccc1F)N2
4. [2H]C([2H])([2H])NC(=O)c1cnc(NC(=O)C2CC2)cc1Nc1ccc2nnc(CC)n2c1OC

1: 76.2 min; 2: 117 min; 3: 82.2 min; 4: > 120 min

The measured values listed here are drawn from patent US20250115597A1.
